Molecular target: Gag-Pol polyprotein (Human immunodeficiency virus type 1 group M subtype B (isolate HXB2)) (UniProt P04585)
Test: RNase H inhibition, HIV 1 Gag Pol polyprotein, FRET biochemical assay, screening (AID 372)
Details: HIV-1 RT RNase H, FRET RNA/DNA substrate fluorescence; at 10 µM; active compounds read high
The whole screen tested about 100,000 compounds, of which about 770 (0.77%) were called active. The sample holds actives, similar compounds and a random draw of the others, so the mix is not that of the screen.
endpoint: inhibition (%)
Just the number in %, nothing appended.

Previously resolved entries follow.
[
  {
    "compound": "COC(=O)c1ccc(COc2ccc3c(c2)oc(=O)c2ccccc23)cc1",
    "inhibition, %": 48
  },
  {
    "compound": "O=C(Nc1ccc2ccccc2c1)c1cc(I)ccc1Cl",
    "inhibition, %": 23
  },
  {
    "compound": "CC(=O)Nc1ccc(C(=O)Nc2ccc(-c3nc4ccccc4[nH]3)cc2)cc1",
    "inhibition, %": 3
  }
]

Query O=C(Nc1ccc(Cl)c(-c2nc3ccccc3[nH]2)c1)c1cc2ccccc2o1 yields inhibition of 11

Query CCOC(=O)N(Cc1ccccc1)C(C(=O)O)C(C(=O)O)N(Cc1ccccc1)C(=O)OCC (stereo not given) yields inhibition of 0

Query O=C(Nc1ccc(OCc2ccccc2)cc1)c1cccc2ccccc12 yields inhibition of 15

Query COc1ccc(N2C(=O)/C(=C\c3ccc([N+](=O)[O-])o3)C(=O)NC2=S)cc1 yields inhibition of 43

Query Cc1ccc(-c2nc3ccccc3[nH]2)cc1NC(=O)c1cc2ccccc2o1 yields inhibition of 8

Query Cc1cc(C)cc(N2C(=O)NC(=O)/C(=C\c3c(C)n(C)c4ccccc34)C2=O)c1 yields inhibition of 12

Query O=C(Nc1ccc(-c2nc3ccccc3[nH]2)cc1)c1ccc(Cl)c(Cl)c1 yields inhibition of 59
